TARGET OR SYSTEM: furin, P09958;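 also: purified furin at 1:10 enzyme:substrate in 50 mM HEPES pH 7.5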
Sequence (P09958 whole entry): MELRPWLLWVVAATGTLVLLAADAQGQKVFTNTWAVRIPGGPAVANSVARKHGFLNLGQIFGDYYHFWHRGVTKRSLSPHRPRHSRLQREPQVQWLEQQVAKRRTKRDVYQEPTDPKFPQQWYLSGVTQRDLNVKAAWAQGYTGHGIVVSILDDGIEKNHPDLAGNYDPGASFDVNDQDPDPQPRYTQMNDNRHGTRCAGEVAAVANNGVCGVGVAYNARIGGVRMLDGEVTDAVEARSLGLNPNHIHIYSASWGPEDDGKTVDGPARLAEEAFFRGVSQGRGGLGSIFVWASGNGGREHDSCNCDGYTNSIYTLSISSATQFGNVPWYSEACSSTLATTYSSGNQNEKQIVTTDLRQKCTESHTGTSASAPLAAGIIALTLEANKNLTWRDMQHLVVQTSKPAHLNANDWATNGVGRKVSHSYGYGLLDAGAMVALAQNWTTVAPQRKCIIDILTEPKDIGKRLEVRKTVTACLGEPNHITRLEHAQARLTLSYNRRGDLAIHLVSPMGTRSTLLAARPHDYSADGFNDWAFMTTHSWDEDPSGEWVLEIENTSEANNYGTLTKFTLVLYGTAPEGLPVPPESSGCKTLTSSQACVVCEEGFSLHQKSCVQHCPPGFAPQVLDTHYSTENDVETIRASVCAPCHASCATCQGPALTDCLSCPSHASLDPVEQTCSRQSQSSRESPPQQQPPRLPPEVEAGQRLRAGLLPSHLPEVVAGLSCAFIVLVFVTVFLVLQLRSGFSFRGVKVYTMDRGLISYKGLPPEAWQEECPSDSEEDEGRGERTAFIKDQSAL
ASSAY NOTES: furin cleavage Z-score vs untreated control; higher = more cleavage, active = 3.5 or more, inactive = 1 or less, 8 variable residues between constant flanks
CONDITIONS USED: 7.5 min
This is one part of the list. The true hit rate is not given.
Labels: active, inactive

BIOSEQUENCE: CARYDRQKRRAGNASASA [FS-866]
QUALITATIVE LABEL: active
--
BIOSEQUENCE: CAAPHREKRGAGNASASA [FS-398]
QUALITATIVE LABEL: active
--
BIOSEQUENCE: CAQRDRQKRRAGNASASA [FS-558]
QUALITATIVE LABEL: active
--
BIOSEQUENCE: CAVRVCEKMAAGNASASA [HC1454]
QUALITATIVE LABEL: inactive
--
BIOSEQUENCE: CAAFASRGNHAGNASASA [HC1121]
QUALITATIVE LABEL: inactive
--
BIOSEQUENCE: CAWRRRQKRRAGNASASA [FS-898]
QUALITATIVE LABEL: active
--
BIOSEQUENCE: CAGKSVKKRSAGNASASA [FS-161]
QUALITATIVE LABEL: active

From: the supplement of paper PMC3545927
